Reported recombinant barcode read abundance (log10) values for the following sequences.
Assay: recombinant barcode read abundance after kanamycin selection (control-corrected) (log10(CPM+1)); higher = more efficient recombination; sequences stand for … in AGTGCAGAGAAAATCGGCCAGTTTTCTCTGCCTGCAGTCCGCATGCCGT…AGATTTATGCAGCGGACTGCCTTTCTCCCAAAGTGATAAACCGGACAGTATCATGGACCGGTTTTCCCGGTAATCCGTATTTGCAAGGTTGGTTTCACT; site = the 11-nt target

Sample records with recombinant barcode read abundance (log10):
GTTGGCCCTTGGGTTCTAACCTGTTGCCT (site GGTGGCCCTAG): 0.152
AGGGTGCCTTGGGTTCTAACCTGTTGCTA (site AGGGTGCCTTA): 2.11
TCCAACACTTGGGTTCTAACCTGTTGCGG (site TCCAACACTCC): 1.31
CTAACCTCTTGGGTTCTAACCTGTTGCTG (site CTAACCTCTTA): 0.0665
CTAGCGACTTGGGTTCTAACCTGTTGCTG (site CTAGCCACTTA): 0
AGAATCCCTTGGGTTCTAACCTGTTGCAT (site ATAAACCCTAT): 0.0539

Below: the item to evaluate.
Kindly note the recorded recombinant barcode read abundance (log10) for TGTCTGCCTTGGGTTCTAACCTGTTGCCT (site GGTCTGCCTAG) , which is 0.0534

----------
Reported recombinant barcode read abundance (log10) values for the following sequences.
Experiment: recombinant barcode read abundance after kanamycin selection (control-corrected) (log10(CPM+1)); higher = more efficient recombination; sequences stand for … in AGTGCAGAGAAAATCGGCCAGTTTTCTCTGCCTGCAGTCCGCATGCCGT…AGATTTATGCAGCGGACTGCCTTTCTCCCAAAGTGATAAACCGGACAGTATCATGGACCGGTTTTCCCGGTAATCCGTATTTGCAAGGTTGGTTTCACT; site = the 11-nt target
Respond numerically, and do not add a unit to the figure.

AGGTCACCTTGGGTTCTAACCTGTTGCGT (site AGGTCACCTAT): 1.08

Kindly note the recorded recombinant barcode read abundance (log10) for TATACAACTTGGGTTCTAACCTGTTGCCT (site TATAAAACTAG) , which is 0.089

Kindly note the recorded recombinant barcode read abundance (log10) for GCTCGTGCTTGGGTTCTAACCTGTTGCCT (site GCTCGTGCTAG) , which is 1.1

Kindly note the recorded recombinant barcode read abundance (log10) for AGCGGTCCTTGGGTTCTAACCTGTTGCCT (site AGCGGTCCTAG) , which is 1.89

----------
Assay: recombinant UMI read abundance after kanamycin selection (control-corrected) (log10(CPM+1)); higher = more efficient recombination; extreme values may be limits of the assay; sequences stand for … in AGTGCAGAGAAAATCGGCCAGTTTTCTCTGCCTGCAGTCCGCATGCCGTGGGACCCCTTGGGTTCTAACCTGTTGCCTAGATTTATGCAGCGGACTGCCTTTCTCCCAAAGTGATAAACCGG…AGGTTGGTTTCACT; site = the 11-nt donor
experimental.endpoint: recombinant UMI read abundance (log10)
Respond numerically, and do not add a unit to the figure.

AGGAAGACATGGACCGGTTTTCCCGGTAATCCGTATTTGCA (site AGGATGACTCG): 0.0201
AGAAAGCCATGGACCGGTTTTCCCGGTAATCCGTATTTGCT (site AGAAAGTCTAG): 2.3

Below: the item to evaluate.
Kindly note the recorded recombinant UMI read abundance (log10) for GAGTCGACATGGACCGGTTTTCCCGGTAATCCGTATTTGGG (site AAGTCGACTCC) , which is 0.257

----------
Assay: recombinant barcode read abundance after kanamycin selection (control-corrected) (log10(CPM+1)); higher = more efficient recombination; sequences stand for … in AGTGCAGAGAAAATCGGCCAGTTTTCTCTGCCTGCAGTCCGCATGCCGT…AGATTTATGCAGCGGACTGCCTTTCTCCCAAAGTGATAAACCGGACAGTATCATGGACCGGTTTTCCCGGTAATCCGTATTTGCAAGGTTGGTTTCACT; site = the 11-nt target
Would you please tag the item true (1) when its recombinant barcode read abundance (log10) is 0.2 or above, and false (0) when it is below?

See these solved cases before continuing.
TTGACATCTTGGGTTCTAACCTGTTGCCT (site TTGATATCTAG): false (0)
GTGTATACTTGGGTTCTAACCTGTTGCCT (site GTCTATACTAG): false (0)
TAGTTTGCTTGGGTTCTAACCTGTTGCGA (site CGTCGGACTCT): false (0)
TGGGGTCCTTGGGTTCTAACCTGTTGCCT (site TGGAGTCCTAG): true (1)
CTATGGACTTGGGTTCTAACCTGTTGCAC (site CTATGGACTGT): true (1)

Exercise: Does recombinant barcode read abundance (log10) meet or surpass 0.2 for CGTTGGTCTTGGGTTCTAACCTGTTGCGA (site TTGCATCCTCT) ?
Solution: false (0)

Exercise: Does recombinant barcode read abundance (log10) meet or surpass 0.2 for GCTGTATCTTGGGTTCTAACCTGTTGCCT (site TCTGTATCTAG) ?
Solution: false (0)

Exercise: Does recombinant barcode read abundance (log10) meet or surpass 0.2 for AAGGAACCTTGGGTTCTAACCTGTTGCCT (site CAGGAACCTAG) ?
Solution: true (1)

Exercise: Does recombinant barcode read abundance (log10) meet or surpass 0.2 for GCAAGTTCTTGGGTTCTAACCTGTTGCCT (site GGAAGTTCTAG) ?
Solution: false (0)

Exercise: Does recombinant barcode read abundance (log10) meet or surpass 0.2 for ACTAGGACTTGGGTTCTAACCTGTTGCGC (site ACTAGGACTCC) ?
Solution: true (1)

Exercise: Does recombinant barcode read abundance (log10) meet or surpass 0.2 for TGGCCTTCTTGGGTTCTAACCTGTTGCCT (site TGGCCTTCTAG) ?
Solution: true (1)

Exercise: Does recombinant barcode read abundance (log10) meet or surpass 0.2 for TAGTAGTCTTGGGTTCTAACCTGTTGCAT (site TAGTAGTCTAT) ?
Solution: true (1)

Exercise: Does recombinant barcode read abundance (log10) meet or surpass 0.2 for AAGCGTACTTGGGTTCTAACCTGTTGCCT (site AAGCGTTCTAG) ?
Solution: false (0)

Exercise: Does recombinant barcode read abundance (log10) meet or surpass 0.2 for TCGCACCCTTGGGTTCTAACCTGTTGCGA (site TCGTACCCTTC) ?
Solution: true (1)

Exercise: Does recombinant barcode read abundance (log10) meet or surpass 0.2 for CTCACACCTTGGGTTCTAACCTGTTGCTT (site CTCAAACCTAA) ?
Solution: true (1)

Exercise: Does recombinant barcode read abundance (log10) meet or surpass 0.2 for TCACGGACTTGGGTTCTAACCTGTTGCCT (site TCACGGACTAG) ?
Solution: true (1)

Exercise: Does recombinant barcode read abundance (log10) meet or surpass 0.2 for CCAACACCTTGGGTTCTAACCTGTTGCCT (site CCAACACCTAG) ?
Solution: true (1)

Exercise: Does recombinant barcode read abundance (log10) meet or surpass 0.2 for GTTTGTCCTTGGGTTCTAACCTGTTGCTT (site GTTTGACCTAA) ?
Solution: false (0)

Exercise: Does recombinant barcode read abundance (log10) meet or surpass 0.2 for GGGAAGACTTGGGTTCTAACCTGTTGCCT (site GGCAAGACTAG) ?
Solution: false (0)

Exercise: Does recombinant barcode read abundance (log10) meet or surpass 0.2 for AGACAGTCTTGGGTTCTAACCTGTTGCCA (site GACTGAGCTCC) ?
Solution: false (0)

Exercise: Does recombinant barcode read abundance (log10) meet or surpass 0.2 for CTACCACCTTGGGTTCTAACCTGTTGCCT (site CTACCACCTAG) ?
Solution: true (1)

Exercise: Does recombinant barcode read abundance (log10) meet or surpass 0.2 for AGAAGATCTTGGGTTCTAACCTGTTGCCT (site TACCTTACTCT) ?
Solution: false (0)

Exercise: Does recombinant barcode read abundance (log10) meet or surpass 0.2 for ACAGGTCCTTGGGTTCTAACCTGTTGCCG (site ACAGGTCCTCG) ?
Solution: true (1)

Exercise: Does recombinant barcode read abundance (log10) meet or surpass 0.2 for TGTTGTGCTTGGGTTCTAACCTGTTGCCT (site TGGCGTGCTAG) ?
Solution: false (0)

Exercise: Does recombinant barcode read abundance (log10) meet or surpass 0.2 for GTCACCTCTTGGGTTCTAACCTGTTGCCT (site GTCGCCTCTAG) ?
Solution: false (0)

----------
Assay: recombinant UMI read abundance after kanamycin selection (control-corrected) (log10(CPM+1)); higher = more efficient recombination; extreme values may be limits of the assay; sequences stand for … in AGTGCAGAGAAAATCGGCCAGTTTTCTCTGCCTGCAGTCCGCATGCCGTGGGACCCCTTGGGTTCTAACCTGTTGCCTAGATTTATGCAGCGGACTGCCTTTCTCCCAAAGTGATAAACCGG…AGGTTGGTTTCACT; site = the 11-nt donor
Reported recombinant UMI read abundance (log10) values for the following sequences.

Sample records with recombinant UMI read abundance (log10):
TGGGTACCATGGACCGGTTTTCCCGGTAATCCGTATTTGTT (site TGGGTACCTAA): 0.0105
ATCGTCACATGGACCGGTTTTCCCGGTAATCCGTATTTGCA (site ATCGTCACTTG): 2.56

Kindly note the recorded recombinant UMI read abundance (log10) for CGATCGACATGGACCGGTTTTCCCGGTAATCCGTATTTGTT (site CGATCGTCTAA) , which is 0.00706

Kindly note the recorded recombinant UMI read abundance (log10) for GTTGTCCCATGGACCGGTTTTCCCGGTAATCCGTATTTGGT (site GTTGTGCCTAC) , which is 0.0145

Kindly note the recorded recombinant UMI read abundance (log10) for CGGGGGTCATGGACCGGTTTTCCCGGTAATCCGTATTTGCC (site CGGGCGTCTGG) , which is 1.7

Kindly note the recorded recombinant UMI read abundance (log10) for CCTAAATCATGGACCGGTTTTCCCGGTAATCCGTATTTGAT (site CCTAAAACTAT) , which is 0

Kindly note the recorded recombinant UMI read abundance (log10) for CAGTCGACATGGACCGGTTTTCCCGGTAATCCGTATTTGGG (site CAGGCGACTCC) , which is 0
